test: Inhibition of FTase (unknown origin); set-up: species or system Homo sapiens
measurement.name: pEC50
Reminder that pEC50 means the negative base-10 logarithm of the concentration expressed in mol/L.

Any idea what pEC50 was measured for Cn1cncc1C(O)(COc1ccc(C#N)cc1-c1ccc(OC(F)(F)F)cc1)c1ccc(C#N)cc1 (stereo unspecified) ? 9.22

---

assay: Oral bioavailability in dog at 2.5 mg/kg; assay type: ADME, organism-based, Canis lupus familiaris; details: in vivo
measurement.name: bioavailability (%)
The reply should be a number in %, with the unit left off.

Any idea what bioavailability was measured for Cn1cncc1[C@](O)(COc1ccc(C#N)cc1-c1ccc(OC(F)(F)F)cc1)c1ccc(C#N)cc1 [ABT-100] ? 35.1

---

experiment: AUC in rat at 5 mg/kg, iv; assay type: ADME, organism-based; details: in vivo
measurement.name: AUC (ng·h/mL)
The reply should be a number in ng·h/mL, with the unit left off.

Any idea what AUC was measured for Cn1cncc1[C@](O)(COc1ccc(C#N)cc1-c1ccc(OC(F)(F)F)cc1)c1ccc(C#N)cc1 ? 3010

---

What EC50 was measured for each of the following?
experiment: Inhibition of FTase in H-Ras transformed mouse NIH3T3 cells using Ras as substrate assessed as inhibition of substrate prenylation in presence of 10% bovine serum by immunoblot analysis; format: cell-based
Show the value, then the unit it is measured in.

Any idea what EC50 was measured for Cn1cncc1C(O)(COc1ccc(C#N)cc1-c1ccc(OC(F)(F)F)cc1)c1ccc(C#N)cc1 (centres undefined) ? 2 nM

Note, next up: Cn1cncc1[C@](O)(COc1ccc(C#N)cc1-c1ccc(OC(F)(F)F)cc1)c1ccc(C#N)cc1 0.73 nM

Note, next up: NC(=O)N1CCC(CC(=O)N2CCC([C@H]3c4ncc(Br)cc4CCc4cc(Cl)cc(Br)c43)CC2)CC1 160 nM

Note, next up: Cn1cncc1[C@@](N)(c1ccc(Cl)cc1)c1ccc2c(c1)c(-c1cccc(Cl)c1)cc(=O)n2C 2.3 nM

---

experiment: Inhibition of FTase in human HCT-116 cells expressing low level of P-gp1 using Ras as substrate assessed as inhibition of substrate post-translation processing in presence of 10% FBS by immunoblot analysis; format: cell-based
What EC50 was measured for each of the following?

Any idea what EC50 was measured for NC(=O)N1CCC(CC(=O)N2CCC([C@H]3c4ncc(Br)cc4CCc4cc(Cl)cc(Br)c43)CC2)CC1 ? 16 nM

Note, next up: Cn1cncc1[C@](O)(COc1ccc(C#N)cc1-c1ccc(OC(F)(F)F)cc1)c1ccc(C#N)cc1 0.43 nM

Note, next up: Cn1cncc1[C@@](N)(c1ccc(Cl)cc1)c1ccc2c(c1)c(-c1cccc(Cl)c1)cc(=O)n2C 0.98 nM

---

experiment: Half-life in dog at 2.5 mg/kg, iv; assay type: ADME, organism-based, Canis lupus familiaris; conditions: in vivo
measurement.name: half-life (min)
The reply should be a number in min, with the unit left off.

Any idea what half-life was measured for Cn1cncc1[C@](O)(COc1ccc(C#N)cc1-c1ccc(OC(F)(F)F)cc1)c1ccc(C#N)cc1 [ABT-100] ? 408

---

assay: Cmax in dog at 2.5 mg/kg, po; type: ADME, organism-based, Canis lupus familiaris; conditions: in vivo
measurement.name: Cmax (ng/mL)
The reply should be a number in ng/mL, with the unit left off.

Any idea what Cmax was measured for Cn1cncc1[C@](O)(COc1ccc(C#N)cc1-c1ccc(OC(F)(F)F)cc1)c1ccc(C#N)cc1 [ABT-100] ? 280

---

test: Inhibition of FTase in human DLD-1 cells expressing moderate level of P-gp1 using Ras as substrate assessed as inhibition of substrate post-translation processing in presence of 10% FBS by immunoblot analysis; assay type: cell-based
What pEC50 was measured for each of the following?
Reminder that pEC50 means the negative base-10 logarithm of the concentration expressed in mol/L.

Any idea what pEC50 was measured for NC(=O)N1CCC(CC(=O)N2CCC([C@H]3c4ncc(Br)cc4CCc4cc(Cl)cc(Br)c43)CC2)CC1 ? 7.92

Note, next up: Cn1cncc1[C@](O)(COc1ccc(C#N)cc1-c1ccc(OC(F)(F)F)cc1)c1ccc(C#N)cc1 9.59

Note, next up: Cn1cncc1[C@@](N)(c1ccc(Cl)cc1)c1ccc2c(c1)c(-c1cccc(Cl)c1)cc(=O)n2C 9.16

---

experiment: Half-life in dog at 2.5 mg/kg, po; format: ADME, organism-based, Canis lupus familiaris; details: in vivo
measurement.name: half-life (h)
The reply should be a number in h, with the unit left off.

Any idea what half-life was measured for Cn1cncc1[C@](O)(COc1ccc(C#N)cc1-c1ccc(OC(F)(F)F)cc1)c1ccc(C#N)cc1 ? 5.9

---

assay: AUC in rat at 5 mg/kg, po; assay type: ADME, organism-based; details: in vivo
measurement.name: AUC (ng·h/mL)
The reply should be a number in ng·h/mL, with the unit left off.

Any idea what AUC was measured for Cn1cncc1[C@](O)(COc1ccc(C#N)cc1-c1ccc(OC(F)(F)F)cc1)c1ccc(C#N)cc1 ? 450

---

assay: Volume of distribution in dog at 2.5 mg/kg, iv; type: ADME, organism-based, Canis lupus familiaris; settings: in vivo
measurement.name: Vd (L/kg)
The reply should be a number in L/kg, with the unit left off.

Any idea what Vd was measured for Cn1cncc1[C@](O)(COc1ccc(C#N)cc1-c1ccc(OC(F)(F)F)cc1)c1ccc(C#N)cc1 ? 3.3

---

test system: HCT-116; assay: Inhibition of anchorage-independent growth in human HCT-116 cells assessed as inhibition of colony formation incubated for 14 days in presence of 10% FBS by imaging based soft agar colony formation assay; format: functional, cell-based; conditions: HCT-116, 336 h
measurement.name: pEC50
Reminder that pEC50 means the negative base-10 logarithm of the concentration expressed in mol/L.

Any idea what pEC50 was measured for NC(=O)N1CCC(CC(=O)N2CCC([C@H]3c4ncc(Br)cc4CCc4cc(Cl)cc(Br)c43)CC2)CC1 ? 7.03

Note, next up: Cn1cncc1[C@](O)(COc1ccc(C#N)cc1-c1ccc(OC(F)(F)F)cc1)c1ccc(C#N)cc1 8.21

Note, next up: Cn1cncc1[C@@](N)(c1ccc(Cl)cc1)c1ccc2c(c1)c(-c1cccc(Cl)c1)cc(=O)n2C 7.62

---

assay: Oral bioavailability in rat at 5 mg/kg; format: ADME, organism-based; settings: in vivo
measurement.name: bioavailability

Any idea what bioavailability was measured for Cn1cncc1[C@](O)(COc1ccc(C#N)cc1-c1ccc(OC(F)(F)F)cc1)c1ccc(C#N)cc1 ? 15.1%

---

assay: Half-life in rat at 5 mg/kg, iv; type: ADME, organism-based; conditions: in vivo
measurement.name: half-life (h)
The reply should be a number in h, with the unit left off.

Any idea what half-life was measured for Cn1cncc1[C@](O)(COc1ccc(C#N)cc1-c1ccc(OC(F)(F)F)cc1)c1ccc(C#N)cc1 ? 2.3

---

assay: Volume of distribution in rat at 5 mg/kg, iv; format: ADME, organism-based; settings: in vivo
measurement.name: Vd (L/kg)
The reply should be a number in L/kg, with the unit left off.

Any idea what Vd was measured for Cn1cncc1[C@](O)(COc1ccc(C#N)cc1-c1ccc(OC(F)(F)F)cc1)c1ccc(C#N)cc1 ? 5.6

---

experiment: Inhibition of recombinant bovine FTase incubated for 30 mins in presence of [3H]FPP by SPA based Topcount scintillation plate reader analysis; design: species or system Bos taurus
What IC50 was measured for each of the following?
The reply should be a number in nM, with the unit left off.

Any idea what IC50 was measured for NC(=O)N1CCC(CC(=O)N2CCC([C@H]3c4ncc(Br)cc4CCc4cc(Cl)cc(Br)c43)CC2)CC1 [LONAFARNIB] ? 7.8

Note, next up: Cn1cncc1[C@](O)(COc1ccc(C#N)cc1-c1ccc(OC(F)(F)F)cc1)c1ccc(C#N)cc1 [ABT-100] 0.13

Note, next up: Cn1cncc1[C@@](N)(c1ccc(Cl)cc1)c1ccc2c(c1)c(-c1cccc(Cl)c1)cc(=O)n2C [TIPIFARNIB] 57

---

assay: Inhibition of GGTase in H-Ras transformed mouse NIH3T3 cells using Rap 1A as substrate assessed as inhibition of substrate prenylation in presence of 10% bovine serum by immunoblot analysis; assay type: cell-based
measurement.name: EC50

Any idea what EC50 was measured for Cn1cncc1[C@](O)(COc1ccc(C#N)cc1-c1ccc(OC(F)(F)F)cc1)c1ccc(C#N)cc1 ? > 30 µM

Note, next up: NC(=O)N1CCC(CC(=O)N2CCC([C@H]3c4ncc(Br)cc4CCc4cc(Cl)cc(Br)c43)CC2)CC1 > 30 µM

Note, next up: Cn1cncc1[C@@](N)(c1ccc(Cl)cc1)c1ccc2c(c1)c(-c1cccc(Cl)c1)cc(=O)n2C > 30 µM
